- Target or system: G3BP1 NTF2-like domain (1-139) F15/33W (human, UniProt Q13283 1-139, F15W | F33W)
- Sequence (Q13283 1-139 F15W/F33W): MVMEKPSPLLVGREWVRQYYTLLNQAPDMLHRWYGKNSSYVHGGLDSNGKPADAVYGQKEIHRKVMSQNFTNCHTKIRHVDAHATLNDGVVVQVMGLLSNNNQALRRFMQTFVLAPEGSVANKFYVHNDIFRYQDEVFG
- Protocol details: fluorescence polarisation
Where no end group is shown, it is not given here. Ahx = NCCCCCC(=O)O
Property: pKd
Answers are plain numbers, as −log10 of the molar value.

Query :: # input binder: {fluorescein-Ahx}-YNFIQDSMLDFE [Caprin1-derived dodecamer reporter peptide F*-YNFIQDSMLDFE] ; wanted: its pKd
Result :: 3.59
